# Assay name: absorption spectrum, light emission spectrum, molecular extinction coefficient and quantum efficiency in solvents
# Type: physicochemical
# Test context: solvent CH2Cl2
Answer each item with its documented λem.
A number alone suffices; assume nm.

Given the molecule CC1(C)C2=C3C=C(C(=O)O)C(=O)OC3CCN2c2cc3c(cc21)-c1ccccc1C3(C)C (centres unmarked) [Compound 61] , what is its reported λem? 522

Would you mind telling me what λem value was observed for CC1(C)C2=C3C=C(CC(=O)[O-])C(=O)OC3CCN2c2ccc(S(=O)(=O)[O-])cc21.[Na+].[Na+] (centres unmarked) [Compound 64] ? 468

λem lookup needed for CC1(C)C2=C3C=C(CC(=O)O)C(=O)OC3CCN2c2ccccc21 (centres unmarked) [Compound 63] , thanks. 466

May I ask what λem has been recorded for COC(=O)C1=CC2=C3N(CCC2OC1=O)c1cc2c(cc1C3(C)C)-c1ccccc1C2(C)C (centres unmarked) [Compound 60] ? 511

Item under review: CCOC(=O)CCCC(=O)C1=CC2=C3N(CCC2OC1=O)c1ccc2ccccc2c1C3(C)C (centres unmarked) [Compound 62] . Reported λem? 511

# input molecule: CC1(C)C2=C3C=C(C(=O)[O-])C(=O)OC3CCN2c2ccc(S(=O)(=O)[O-])cc21.[Na+].[Na+] (centres unmarked) [Compound 2] ; wanted: its λem 495

Name the recorded λem for CC1(C)C2=C3C=C(C(=O)CCCC(=O)[O-])C(=O)OC3CCN2c2ccc3cc(S(=O)(=O)[O-])ccc3c21.[Na+].[Na+] (centres unmarked) [Compound 16] . 515

I'd like to know its λem. The molecule in question is CC1(C)C2=C3C=CC(=O)OC3CCN2c2ccc(S(=O)(=O)[O-])cc21.[Na+] (centres unmarked) [Compound 3] 464

###

# Assay name: absorption spectrum, light emission spectrum, molecular extinction coefficient and quantum efficiency in solvents
# Format: physicochemical
# Test context: solvent EtOH
Assign λex to each entry below.
Numeric answer only, unit nm assumed.

Item under review: CCOC(=O)CCCC(=O)C1=CC2=C3N(CCC2OC1=O)c1ccc2ccccc2c1C3(C)C (stereo not shown) . Reported λex? 486

Can you look up the measured λex of CC1(C)C2=C3C=C(C(=O)[O-])C(=O)OC3CCN2c2ccccc21.[Na+] (stereo not shown) for me? 462

Dear colleague, I am looking for the recorded λex of the following compound: CC1(C)C2=C3C=C(C(=O)O)C(=O)OC3CCN2c2cc3c(cc21)-c1ccccc1C3(C)C (stereo not shown) 480

Return reported λex; argument: CC1(C)C2=C3C=C(C(=O)CCCC(=O)[O-])C(=O)OC3CCN2c2ccc3cc(S(=O)(=O)[O-])ccc3c21.[Na+].[Na+] (stereo not shown) 490

Could you share which λex value was measured for CC1(C)C2=C3C=C(CC(=O)[O-])C(=O)OC3CCN2c2ccc(S(=O)(=O)[O-])cc21.[Na+].[Na+] (stereo not shown) ? 408

Which λex value is on record for CC1(C)C2=C3C=C(CC(=O)O)C(=O)OC3CCN2c2ccccc21 (stereo not shown) ? 416

Please look up its λex: COC(=O)C1=CC2=C3N(CCC2OC1=O)c1cc2c(cc1C3(C)C)-c1ccccc1C2(C)C (stereo not shown) 474
